The measurements presented in this section are drawn from ChEMBL document CHEMBL1136994.

Below, each entry is listed alongside its reported EC50.
# targetEntity: Melanocyte-stimulating hormone receptor (Homo sapiens, UniProt Q01726)
# Sequence (Q01726 whole entry): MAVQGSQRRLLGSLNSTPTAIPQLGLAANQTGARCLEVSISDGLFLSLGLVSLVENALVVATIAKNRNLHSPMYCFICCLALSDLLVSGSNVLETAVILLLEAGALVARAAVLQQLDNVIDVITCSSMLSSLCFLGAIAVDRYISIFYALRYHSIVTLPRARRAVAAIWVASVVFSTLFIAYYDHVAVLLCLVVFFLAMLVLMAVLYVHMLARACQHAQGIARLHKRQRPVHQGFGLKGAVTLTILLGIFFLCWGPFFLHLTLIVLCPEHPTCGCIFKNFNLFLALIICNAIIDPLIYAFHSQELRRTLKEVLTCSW

{"columns": ["itemSmiles", "targetEntity", "EC50"],
 "data": [
  ["CCCC[C@H](NC(C)=O)C(=O)N[C@H]1CC(=O)NCCCC[C@@H](C(N)=O)NC(=O)[C@H](Cc2c[nH]c3ccccc23)NC(=O)[C@@H]2C[C@@H](NC(=N)N)CN2C(=O)[C@@H](Cc2ccc3ccccc3c2)NC(=O)[C@H](Cc2cnc[nH]2)NC1=O", "Melanocyte-stimulating hormone receptor (Homo sapiens, UniProt Q01726)", "19 µM"],
  ["CCCC[C@H](NC(C)=O)C(=O)N[C@H]1CC(=O)NCCCC[C@@H](C(N)=O)NC(=O)[C@H](Cc2c[nH]c3ccccc23)NC(=O)[C@@H]2CCCN2C(=O)[C@@H](Cc2ccc3ccccc3c2)NC(=O)[C@H](Cc2cnc[nH]2)NC1=O", "Melanocyte-stimulating hormone receptor (Homo sapiens, UniProt Q01726)", "0.16 µM"],
  ["CCCC[C@H](NC(=O)[C@@H](NC(=O)[C@H](Cc1ccc(O)cc1)NC(C)=O)C(C)C)C(=O)NCC(=O)N[C@@H](Cc1cnc[nH]1)C(=O)N[C@H](Cc1ccccc1)C(=O)N1C[C@H](NC(=N)N)C[C@H]1C(=O)N[C@@H](Cc1c[nH]c2ccccc12)C(=O)N[C@@H](CC(=O)O)C(=O)N[C@@H](CCCNC(=N)N)C(=O)N[C@@H](Cc1ccccc1)C(=O)NCC(N)=O", "Melanocyte-stimulating hormone receptor (Homo sapiens, UniProt Q01726)", "1.4 µM"],
  ["CCCC[C@H](NC(C)=O)C(=O)N[C@H]1CC(=O)NCCCC[C@@H](C(N)=O)NC(=O)[C@H](Cc2c[nH]c3ccccc23)NC(=O)[C@H](CCCN=C(N)N)NC(=O)[C@@H](Cc2ccccc2)NC(=O)[C@@H]2C[C@H](N=C(N)N)CN2C1=O", "Melanocyte-stimulating hormone receptor (Homo sapiens, UniProt Q01726)", "2.7 µM"],
  ["CCCC[C@H](NC(=O)[C@@H](NC(=O)[C@H](Cc1ccc(O)cc1)NC(C)=O)C(C)C)C(=O)NCC(=O)N[C@@H](Cc1cnc[nH]1)C(=O)N[C@H](Cc1ccccc1)C(=O)N1C[C@@H](NC(=N)N)C[C@H]1C(=O)N[C@@H](Cc1c[nH]c2ccccc12)C(=O)N[C@@H](CC(=O)O)C(=O)N[C@@H](CCCNC(=N)N)C(=O)N[C@@H](Cc1ccccc1)C(=O)NCC(N)=O", "Melanocyte-stimulating hormone receptor (Homo sapiens, UniProt Q01726)", "> 5 µM"]
]}

Return reported EC50; argument: CCCC[C@H](NC(C)=O)C(=O)N[C@H]1CC(=O)NCCCC[C@@H](C(N)=O)NC(=O)[C@H](Cc2c[nH]c3ccccc23)NC(=O)[C@@H]2CCCN2C(=O)[C@@H](Cc2ccccc2)NC(=O)[C@H](Cc2cnc[nH]2)NC1=O
> 1 µM

Return reported EC50; argument: CCCC[C@H](NC(C)=O)C(=O)N[C@H]1CC(=O)NCCCC[C@@H](C(N)=O)NC(=O)[C@H](Cc2c[nH]c3ccccc23)NC(=O)[C@H](CCCN=C(N)N)NC(=O)[C@@H](Cc2ccccc2)NC(=O)[C@@H]2C[C@@H](N=C(N)N)CN2C1=O
0.82 µM

Return reported EC50; argument: CCCC[C@H](NC(=O)[C@@H](NC(=O)[C@H](Cc1ccc(O)cc1)NC(C)=O)C(C)C)C(=O)NCC(=O)N[C@@H](Cc1cnc[nH]1)C(=O)N[C@H](Cc1ccccc1)C(=O)N1CCC[C@H]1C(=O)N[C@@H](Cc1c[nH]c2ccccc12)C(=O)N[C@@H](CC(=O)O)C(=O)N[C@@H](CCCNC(=N)N)C(=O)N[C@@H](Cc1ccccc1)C(=O)NCC(N)=O
0.12 µM
